Reported Analgesic duration is given for each of the following molecules.
- Test system: rats intraplantarly injected with carrageenin
- procedure-details: Paw pressure test (pain threshold of paw), analgesic effect after intramuscular injection
- Format: in vivo, Sprague-Dawley rats
- condition-context: 240 μmole/Kg intramuscular, in oil A (sesame oil)
Give your result in h as a bare value.

Solved entries:
molecule	Analgesic duration [h]
CCCCCCCCCCOC(=O)C1CCn2c(C(=O)c3ccccc3)ccc21 (stereo not shown)	76
O=C(c1ccccc1)c1ccc2n1CCC2C(=O)OCc1ccccc1 (stereo not shown)	56
CCCCCCCOC(=O)C1CCn2c(C(=O)c3ccccc3)ccc21 (stereo not shown)	74
CC(C)(C)OC(=O)C1CCn2c(C(=O)c3ccccc3)ccc21 (stereo not shown)	56

Problem: Form field: reported Analgesic duration of CCCOC(=O)C1CCn2c(C(=O)c3ccccc3)ccc21 (stereo not shown)
Solution: 54

Problem: Analgesic duration lookup needed for CCCCCOC(=O)C1CCn2c(C(=O)c3ccccc3)ccc21 (stereo not shown) , thanks.
Solution: 56

Problem: Find the recorded Analgesic duration belonging to CCCCCCCCCCCCCCCCOC(=O)C1CCn2c(C(=O)c3ccccc3)ccc21 (stereo not shown) and report it.
Solution: 74

====

- procedure-details: Solubility in sesame oil
- Format: physicochemical
measure: solubility in sesame oil (mM)
State just the number; it will be interpreted in mM.

Problem: Report solubility in sesame oil for O=C(c1ccccc1)c1ccc2n1CCC2C(=O)O (racemic) [Ketorolac] please.
Solution: 10.6
